Recorded values, source patent US20190292243A1.

Assay: Folding of manufactured peptide variants (HPLC traces)
Format: physicochemical
PARAMETER: folding of the manufactured peptide

Past entries and their recorded results:
GSSCEPGRTFEDRCNTCRCGADGRSAACTLRACPNQ [SEQ ID NO: 18]	Improved folding
GSSCEPGRTFRDRCNTCRCGADGRSAACTLEACPNQ [SEQ ID NO: 25]	Improved folding
GSSCEPGRTFADACNTCRCGADGRSAACTLAACPNQ [SEQ ID NO: 2]	unable to fold
GSSCEPGRTFRDECNTCRCGADGRSAACTLRACPNQ [SEQ ID NO: 20]	Improved folding

Lab note: next sequence to report on.
Return folding of the manufactured peptide for the following sequence: GSSCEPGRTFEDECNTCRCGADGRSAACTLEACPNQ [SEQ ID NO: 1]
unable to fold
